- Tgt: Nuclear receptor ROR-gamma (Homo sapiens)
- Sequence (P51449 whole entry, the tested form may be a part): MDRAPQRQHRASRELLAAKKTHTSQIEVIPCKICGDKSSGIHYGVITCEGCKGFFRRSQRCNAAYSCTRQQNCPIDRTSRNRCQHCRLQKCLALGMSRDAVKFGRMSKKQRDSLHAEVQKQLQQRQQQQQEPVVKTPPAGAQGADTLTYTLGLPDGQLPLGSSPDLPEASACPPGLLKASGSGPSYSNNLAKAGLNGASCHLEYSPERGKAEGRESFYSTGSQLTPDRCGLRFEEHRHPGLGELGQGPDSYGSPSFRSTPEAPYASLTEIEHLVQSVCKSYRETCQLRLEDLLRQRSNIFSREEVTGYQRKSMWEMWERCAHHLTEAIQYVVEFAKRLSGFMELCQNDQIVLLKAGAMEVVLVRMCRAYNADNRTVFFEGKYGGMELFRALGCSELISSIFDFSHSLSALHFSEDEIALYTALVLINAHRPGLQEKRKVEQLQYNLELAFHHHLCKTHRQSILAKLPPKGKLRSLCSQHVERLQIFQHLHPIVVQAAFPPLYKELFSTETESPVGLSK
- Assay overview: Displacement of N-terminal biotinylated SRC1-4 coactivator peptide from N-terminal His6-fused human RORgamma-LBD (262 to 507 residues) expressed in Escherichia coli BL21 (DE3) by luminescence-based Alphascreen assay
- Test context: read-out: IC50
pIC50: −log10 of the molar value.
Quick rule: pIC50 of at least 5 means fulfilled, below that means not fulfilled.

Recorded results for 3 molecules are shown here.
* Cc1ccc(S(=O)(=O)N(CC(=O)Nc2ccc(F)cc2)c2cccc(C(F)(F)F)c2)cc1 | fulfilled
* Cc1ccc(S(=O)(=O)N(CC(=O)Nc2ccc(C#N)cc2)c2ccc(F)cc2)cc1 | not fulfilled
* Cc1ccc(N(CC(=O)Nc2ccc(C#N)cc2)S(=O)(=O)Cc2ccc(F)cc2)cc1 | not fulfilled

Kindly determine if pIC50 recorded for Cc1ccc(S(=O)(=O)N(CC(=O)NCc2ccc(O)cc2)c2cccc(C(F)(F)F)c2)cc1 is above or exactly 5.
not fulfilled
